Numbers sourced from paper PMC11277489.

system: MOLT-4; experiment: NCI60 one-dose screen (10 μM), Leukemia; assay type: cell-based, human; conditions: Homo sapiens; 10 μM; MOLT-4, Leukemia; read-out: Growth percent rate
Task for the reader: assign each of the following molecules its reported activity at 10 µM.
Return type: number; implicit unit %.

Sample CCC12C=CCN3CCC4(c5cc(NC(=O)CN6CCN(c7ccc(C(F)(F)F)cc7)CC6)c(OC)cc5N(C)C4C(O)(C(=O)OC)C1OC(C)=O)C32 (stereo not drawn) , system: MOLT-4. Its activity at 10 µM is 8.66

Field activity at 10 µM (system: MOLT-4) for entry CCC12C=CCN3CCC4(c5cc(NC(=O)CN6CCN(C(c7ccc(F)cc7)c7ccc(F)cc7)CC6)c(OC)cc5N(C)C4C(O)(C(=O)OC)C1OC(C)=O)C32 (stereo not drawn) = 1.17

Test item CCC12C=CCN3CCC4(c5ccc(OC)cc5N(C)C4C(O)(C(=O)OC)C1OC(=O)CCC(=O)O)C32 (stereo not drawn) ; MOLT-4; reported activity at 10 µM was 106

For CCC12C=CCN3CCC4(c5cc(NC(=O)CN6CCN(C(=O)c7ccco7)CC6)c(OC)cc5N(C)C4C(O)(C(=O)OC)C1OC(C)=O)C32 (stereo not drawn) on MOLT-4, measured activity at 10 µM was 101

Query "CC[C@]12C=CCN3CC[C@@]4(c5ccc(OC)cc5N(C)[C@H]4[C@@](O)(C(=O)OC)[C@@H]1OC(=O)CCCN1CCN(c4ccc(C(F)(F)F)cc4)CC1)[C@@H]32" on MOLT-4; activity at 10 µM returned: 9.3

Assay MOLT-4, sample "CC[C@]12C=CCN3CC[C@@]4(c5ccc(OC)cc5N(C)[C@H]4[C@@](O)(C(=O)OC)[C@@H]1OC(=O)CCC(=O)N1CCN(c4ccc(C(F)(F)F)cc4)CC1)[C@@H]32" , activity at 10 µM read: 18.7

Bench note, MOLT-4: entry "CC[C@]12C=CCN3CC[C@@]4(c5ccc(OC)cc5N(C)[C@H]4[C@@](O)(C(=O)OC)[C@@H]1OC(=O)CCCN1CCN(C(=O)c4ccco4)CC1)[C@@H]32" , its activity at 10 µM = 77.3

Item "CC[C@]12C=CCN3CC[C@@]4(c5ccc(OC)cc5N(C)[C@H]4[C@@](O)(C(=O)OC)[C@@H]1OC(=O)CCC(=O)N1CCN(Cc4ccc(F)cc4)CC1)[C@@H]32" ; assay system MOLT-4; activity at 10 µM reported as 59.4

Measured activity at 10 µM for this entry "CC[C@]12C=CCN3CC[C@@]4(c5ccc(OC)cc5N(C)[C@H]4[C@@](O)(C(=O)OC)[C@@H]1OC(=O)CCC(=O)N1CCN(C(c4ccc(F)cc4)c4ccc(F)cc4)CC1)[C@@H]32" on MOLT-4: -98.8

# CCC12C=CCN3CCC4(c5ccc(OC)cc5N(C)C4C(O)(C(=O)OC)C1OC(=O)CCCN1CCN(C)CC1)C32 (stereo not drawn) with MOLT-4: activity at 10 µM is 102

Query CCC12C=CCN3CCC4(c5ccc(OC)cc5N(C)C4C(O)(C(=O)OC)C1OC(=O)CCCBr)C32 (stereo not drawn) on MOLT-4; activity at 10 µM returned: 76.1

The reported MOLT-4 activity at 10 µM of "CC[C@]12C=CCN3CC[C@@]4(c5ccc(OC)cc5N(C)[C@H]4[C@@](O)(C(=O)OC)[C@@H]1OC(=O)CCC(=O)N1CCN(Cc4ccc(C(F)(F)F)cc4)CC1)[C@@H]32" is -4.63
